Target: KMT9 (Homo sapiens)
Sequence (Q9Y5N5 1-214): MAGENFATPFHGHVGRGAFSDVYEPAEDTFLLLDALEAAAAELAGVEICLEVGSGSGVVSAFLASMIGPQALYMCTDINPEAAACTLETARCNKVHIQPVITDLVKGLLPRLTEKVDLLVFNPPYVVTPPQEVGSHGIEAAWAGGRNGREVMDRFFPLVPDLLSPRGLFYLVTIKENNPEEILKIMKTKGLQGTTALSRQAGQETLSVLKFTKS
Sequence (Q9UI30 1-125 partner): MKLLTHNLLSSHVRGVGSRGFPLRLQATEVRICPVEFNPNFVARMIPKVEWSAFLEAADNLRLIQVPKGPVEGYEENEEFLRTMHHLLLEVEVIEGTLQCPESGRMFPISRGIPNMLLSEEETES
Experiment: Microscale thermophoresis (MST) binding assay
Conditions: MST, binding to KMT9; read-out: Kd
METRIC: Kd (nM)
Give the quantity in nM, number only.

COMPOUND: CNc1ncnc2c1ccn2[C@@H]1C[C@H](CN(CCCNCCc2ccc(Oc3ccc(Cl)cc3)c(F)c2)CC[C@H](N)C(=O)O)[C@@H](O)[C@H]1O
Kd, nM: 10

What does the record list as Kd for CN(C)CCCN(CC[C@H](N)C(=O)O)C[C@H]1O[C@@H](n2cnc3c(N)ncnc32)[C@H](O)[C@@H]1O [compound 3b, reference compound] ?
1000

What does the record list as Kd for `CNc1ncnc2c1ccn2[C@@H]1C[C@H](CN(CCCNCCc2ccc(Oc3ccccc3)cc2)CC[C@H](N)C(=O)O)[C@@H](O)[C@H]1O` ?
70

What does the record list as Kd for `C[C@@H](CN(CCCN)C[C@H]1O[C@@H](n2cnc3c(N)ncnc32)[C@H](O)[C@@H]1O)N1CCC(O)CC1` ?
50000
